Here, each record is paired with measured MC4R selectivity vs MC3R data.
- Assay Target: human MC4R receptor (human, UniProt P32245 1-332)
- Sequence (P32245 whole entry): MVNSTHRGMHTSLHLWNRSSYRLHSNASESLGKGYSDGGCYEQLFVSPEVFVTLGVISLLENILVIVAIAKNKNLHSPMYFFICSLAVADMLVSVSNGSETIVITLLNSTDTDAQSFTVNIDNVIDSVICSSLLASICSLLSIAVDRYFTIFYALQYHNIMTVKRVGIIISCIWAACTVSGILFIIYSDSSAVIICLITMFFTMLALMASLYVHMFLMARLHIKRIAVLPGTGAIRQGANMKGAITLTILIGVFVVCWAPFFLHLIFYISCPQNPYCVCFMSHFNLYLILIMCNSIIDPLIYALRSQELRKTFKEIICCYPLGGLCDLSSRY
- Protocol Text: cell-based or functional assay
Positions of bridges follow the written chain, without caps; N, C: chain ends. Non-standard residues stand in square brackets, D forms with d. d1Nal = N[C@H](Cc1cccc2ccccc12)C(=O)O; Cit = NC(=O)NCCC[C@H](N)C(=O)O; NMeA = CN[C@@H](C)C(=O)O; Nle = CCCC[C@H](N)C(=O)O
Quick one: just the number, no unit, thanks!

Ac-R[Nle]CR[d1Nal]RWC-NH2 (disulfide 3-8; SMILES CCCC[C@H](NC(=O)[C@H](CCCNC(=N)N)NC(C)=O)C(=O)N[C@H]1CSSC[C@@H](C(N)=O)NC(=O)[C@H](Cc2c[nH]c3ccccc23)NC(=O)[C@H](CCCNC(=N)N)NC(=O)[C@@H](Cc2cccc3ccccc23)NC(=O)[C@H](CCCNC(=N)N)NC1=O) [CTX-1611]: 6.61
Ac-RC[NMeA]R[dF]R[dW]C-NH2 (disulfide 2-8; SMILES CC(=O)N[C@@H](CCCNC(=N)N)C(=O)N[C@H]1CSSC[C@@H](C(N)=O)NC(=O)[C@@H](Cc2c[nH]c3ccccc23)NC(=O)[C@H](CCCNC(=N)N)NC(=O)[C@@H](Cc2ccccc2)NC(=O)[C@H](CCCNC(=N)N)NC(=O)[C@H](C)N(C)C1=O) [CTX-1269]: 9.31

// MC4R selectivity vs MC3R value for Ac-R[Nle]C[Cit][dF]RFC-NH2 (disulfide 3-8; SMILES CCCC[C@H](NC(=O)[C@H](CCCNC(=N)N)NC(C)=O)C(=O)N[C@H]1CSSC[C@@H](C(N)=O)NC(=O)[C@H](Cc2ccccc2)NC(=O)[C@H](CCCNC(=N)N)NC(=O)[C@@H](Cc2ccccc2)NC(=O)[C@H](CCCNC(N)=O)NC1=O) [CTX-1626] : 1.6
